# target.under.test: MALT1 protease (Homo sapiens, UniProt Q9UDY8)
# setup.conditions: Cell (Glo), GloSensor reporter, PMA/IO activated Raji cells
For each entry below, report its pIC50 value.
One number for each entry, as −log10 of the molar value.

Batch lookup, pIC50 per entry.
1. CC(C)[C@H](NC(=O)c1ccc(C#N)cc1)C(=O)N1CCC[C@H]1C(=O)N[C@@H](CCCNC(=N)N)C(=O)CF
2. CC(C)[C@H](NC(=O)C1CCCCC1)C(=O)N1CCC[C@H]1C(=O)N[C@@H](CCCNC(=N)N)C(=O)CF
3. CC(C)[C@H](NC(=O)c1cccc(Br)c1)C(=O)N1CCC[C@H]1C(=O)N[C@@H](CCCNC(=N)N)C(=O)CF
4. CC(C)[C@H](NC(=O)c1ccccc1Br)C(=O)N1CCC[C@H]1C(=O)N[C@@H](CCCNC(=N)N)C(=O)CF

1: 6.15; 2: 6.19; 3: 6.74; 4: 5.95

* * *

# target.under.test: MALT1 protease (Homo sapiens, UniProt Q9UDY8)
# setup.conditions: Cell (Glo), GloSensor reporter, PMA/IO activated Raji cells
Square brackets hold non-standard residues; d marks the D form. Peptide text beside a SMILES is read from it. * marks the point of attachment. cisHyp = O=C(O)[C@@H]1C[C@H](O)CN1; Pip = O=C(O)[C@@H]1CCCCN1; Cbz = O=C(OCc1ccccc1)*; CH2F = FC*
Class (required): determined from IC50; valid ranges are low bracket (below 100 nM), middle bracket (100 nM to below 700 nM), high bracket (700 nM or more)

Sort into band: `CCC(=O)[C@H](CCCNC(=N)N)NC(=O)[C@@H]1CCCN1C(=O)[C@@H](NC(=O)[C@H](CC(C)C)NC(=O)OCc1ccccc1)C(C)C` high bracket

Sort into band: `CC(C)[C@H](NC(=O)Nc1ccc(Cl)cc1)C(=O)N1CCC[C@H]1C(=O)N[C@@H](CCCNC(=N)N)C(=O)CF` middle bracket

Sort into band: `CC(C)[C@H](NC(=O)c1ccc(Br)cc1)C(=O)N1C[C@H](O)C[C@H]1C(=O)N[C@@H](CCCNC(=N)N)C(=O)CF` low bracket

Sort into band: `CC(C)[C@H](NC(=O)c1ccc(C(F)(F)F)cc1)C(=O)N1CCC[C@H]1C(=O)N[C@@H](CCCNC(=N)N)C(=O)CF` middle bracket

Sort into band: CC(C)[C@H](NC(=O)OCc1ccccc1)C(=O)N1CCCC[C@H]1C(=O)N[C@@H](CCCNC(=N)N)C(=O)CF [Compound 40] (Cbz-Val-[Pip]-Arg-CH2F) middle bracket

Sort into band: `CC(C)c1ccc(C(=O)N[C@H](C(=O)N2CCC[C@H]2C(=O)N[C@@H](CCCNC(=N)N)C(=O)CF)C(C)C)cc1` low bracket

Sort into band: `N=C(N)NCCC[C@H](NC(=O)[C@@H]1CCCN1C(=O)[C@H](Cc1ccccc1)NC(=O)OCc1ccccc1)C(=O)CF` high bracket

Sort into band: CC(C)[C@H](NC(=O)OCc1ccccc1)C(=O)N1C[C@@H](O)C[C@H]1C(=O)N[C@@H](CCCNC(=N)N)C(=O)CF [Compound 42] (Cbz-Val-[cisHyp]-Arg-CH2F) middle bracket

Sort into band: `CC(C)[C@H](NC(=O)OCc1ccccc1)C(=O)N[C@@H](CO)C(=O)N[C@@H](CCCNC(=N)N)C(=O)CF` middle bracket

* * *

# target.under.test: MALT1 protease (Homo sapiens)
# Sequence (Q9UDY8 1-824): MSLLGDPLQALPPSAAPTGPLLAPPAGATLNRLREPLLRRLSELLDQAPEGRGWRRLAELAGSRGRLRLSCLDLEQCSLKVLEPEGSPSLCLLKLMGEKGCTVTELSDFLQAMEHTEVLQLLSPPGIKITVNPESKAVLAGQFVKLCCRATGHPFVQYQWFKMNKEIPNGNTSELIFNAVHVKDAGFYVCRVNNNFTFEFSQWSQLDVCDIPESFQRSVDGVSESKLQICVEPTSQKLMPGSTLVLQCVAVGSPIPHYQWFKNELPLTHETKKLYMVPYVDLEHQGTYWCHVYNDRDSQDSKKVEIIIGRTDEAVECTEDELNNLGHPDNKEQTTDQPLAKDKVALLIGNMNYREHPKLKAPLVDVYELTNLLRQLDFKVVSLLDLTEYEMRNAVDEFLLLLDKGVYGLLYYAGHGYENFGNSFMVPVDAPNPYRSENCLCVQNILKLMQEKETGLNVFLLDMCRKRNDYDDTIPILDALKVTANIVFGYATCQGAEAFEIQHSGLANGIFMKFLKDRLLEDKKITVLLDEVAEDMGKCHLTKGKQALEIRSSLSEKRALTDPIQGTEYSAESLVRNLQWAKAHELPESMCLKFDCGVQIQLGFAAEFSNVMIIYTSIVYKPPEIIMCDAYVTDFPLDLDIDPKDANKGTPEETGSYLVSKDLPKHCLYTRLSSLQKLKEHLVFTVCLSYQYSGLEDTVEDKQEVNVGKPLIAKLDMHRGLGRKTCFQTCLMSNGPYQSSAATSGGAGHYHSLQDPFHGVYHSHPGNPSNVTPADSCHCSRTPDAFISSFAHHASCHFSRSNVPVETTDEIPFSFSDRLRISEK
# setup.conditions: Cell (Glo), GloSensor reporter, PMA/IO activated Raji cells
Numbered stars: 1 amine (or outer) side, 2 acyl side, 3 side chain; on linkers, the order of the positions; unused ones are H or OH. Square brackets hold non-standard residues; d marks the D form. Peptide text beside a SMILES is read from it. * marks the point of attachment. Phg = N[C@H](C(=O)O)c1ccccc1; Tle = CC(C)(C)[C@H](N)C(=O)O; Ac5c = NC1(C(=O)O)CCCC1; Cbz = O=C(OCc1ccccc1)*; CO = O=C([*:1])[*:2]; NHPh = c1ccc(N*)cc1; CH2F = FC*
readout.label: log10 of IC50 (log10 of the value in nM)
Could you please treat all values as log10 of IC50 in nM?

Example results:
molecule: CC(C)(C)[C@H](NC(=O)OCc1ccccc1)C(=O)N1CCC[C@H]1C(=O)N[C@@H](CCCNC(=N)N)C(=O)CF [Compound 35] (Cbz-[Tle]-Pro-Arg-CH2F)
target.under.test: MALT1 protease (Homo sapiens)
log10 of IC50: 2.85
//
molecule: N=C(N)NCCC[C@H](NC(=O)[C@@H]1CCCN1C(=O)[C@@H](NC(=O)c1ccc(Br)cc1)C1CCCCC1)C(=O)CF [Compound 51]
target.under.test: MALT1 protease (Homo sapiens)
log10 of IC50: 1.63
//
molecule: CC(C)[C@H](NC(=O)Nc1ccccc1)C(=O)N1CCC[C@H]1C(=O)N[C@@H](CCCNC(=N)N)C(=O)CF [Compound 29] ({NHPh-CO}-Val-Pro-Arg-CH2F)
target.under.test: MALT1 protease (Homo sapiens)
log10 of IC50: 2.23
//
molecule: N=C(N)NCCC[C@H](NC(=O)[C@@H]1CCCN1C(=O)C1(NC(=O)OCc2ccccc2)CCCC1)C(=O)CF [Compound 38] (Cbz-[Ac5c]-Pro-Arg-CH2F)
target.under.test: MALT1 protease (Homo sapiens)
log10 of IC50: 3.73
//
molecule: N=C(N)NCCC[C@H](NC(=O)[C@@H]1CCCN1C(=O)[C@@H](NC(=O)OCc1ccccc1)c1ccccc1)C(=O)CF [Compound 36] (Cbz-[Phg]-Pro-Arg-CH2F)
target.under.test: MALT1 protease (Homo sapiens)
log10 of IC50: 3.16

Batch lookup, log10 of IC50 per entry.
1. CC(C)[C@H](NC(=O)c1ccc(Br)cc1)C(=O)N1COC[C@H]1C(=O)N[C@@H](CCCNC(=N)N)C(=O)CF [Compound 48]
2. CC[C@H](C)[C@H](NC(=O)OCc1ccccc1)C(=O)N1CCC[C@H]1C(=O)N[C@@H](CCCNC(=N)N)C(=O)CF [Compound 32] (Cbz-Ile-Pro-Arg-CH2F)
3. CC(C)[C@H](NC(=O)c1ccc(Br)cc1)C(=O)N1CCC[C@@H]1C(=O)N[C@@H](CCCNC(=N)N)C(=O)CF [Compound 50]

1: 1.89; 2: 3.27; 3: 4.24
